Tested on: S. typhimurium/E. coli reverse mutation, colony counts
assay_method_text: Bacterial reverse mutation test (aka Ames test) summary data;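 note: His-minus Salmonella and trp-minus E. coli WP2 uvrA pKM101 with or without liver S9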
Results filed as inconclusive are left out. Activity calls are given as the source filed them. The rule behind the calls is not given here.
Outcome (select one): TRUE (active), FALSE (inactive)

[[record]]
compound = "O=C1O[C@H]([C@H](O)CO)C(O)=C1O"
label = "TRUE"

[[record]]
compound = "CC1=CC(=O)CC(C)(C)C1"
label = "FALSE"


Can you look up the reported call for CCCCOCC1CO1 (configuration not stated) for me? TRUE

Can you look up the reported call for NO for me? TRUE

Can you look up the reported call for Cc1cc(C)cc(N)c1 for me? TRUE

Can you look up the reported call for FC(F)(F)c1cccc(Cl)c1 for me? FALSE
